# TARGET_SYSTEM: GSK3α (GST-full length GSK3α) (Homo sapiens (Human))
# Sequence (P49840 whole entry): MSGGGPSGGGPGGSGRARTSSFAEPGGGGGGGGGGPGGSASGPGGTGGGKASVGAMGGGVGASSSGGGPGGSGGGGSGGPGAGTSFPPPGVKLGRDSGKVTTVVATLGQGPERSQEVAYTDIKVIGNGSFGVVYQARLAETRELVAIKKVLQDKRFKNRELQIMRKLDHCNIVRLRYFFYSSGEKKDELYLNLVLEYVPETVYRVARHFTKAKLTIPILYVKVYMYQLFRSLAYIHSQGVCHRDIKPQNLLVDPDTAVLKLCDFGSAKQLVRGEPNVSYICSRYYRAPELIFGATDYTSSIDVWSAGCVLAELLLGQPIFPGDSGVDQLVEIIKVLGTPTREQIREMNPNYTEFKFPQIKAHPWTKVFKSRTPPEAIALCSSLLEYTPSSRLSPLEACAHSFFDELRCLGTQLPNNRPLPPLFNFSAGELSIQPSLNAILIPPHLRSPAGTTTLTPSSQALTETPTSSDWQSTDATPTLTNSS
# TEST_DESCRIPTION: GSK3α TR-FRET kinase assay
# Type: biochemical
# MEASUREMENT_CONDITIONS: 1 nM GSK3α, 4 μM ATP, 30 minute preincubation; geometric mean; read-out: GSK3-A TR-FRET BIOCHEMICAL (TR-FRET); GMean; IC50
pIC50: −log10 of the molar value.
EXPERIMENTAL_ENDPOINT: pIC50

GSK3α (GST-full length GSK3α) (Homo sapiens (Human)) data for CCC1(c2cccc(-c3ccnc(C)c3)c2)C2=C(CC3(CCCOC3)NC2=O)Nc2n[nH]cc21 (stereo not shown) [Compound 948153] ; its pIC50: < 5.30

----------
# TARGET_SYSTEM: human GSK3β (Homo sapiens (Human))
# Sequence (P49841 whole entry): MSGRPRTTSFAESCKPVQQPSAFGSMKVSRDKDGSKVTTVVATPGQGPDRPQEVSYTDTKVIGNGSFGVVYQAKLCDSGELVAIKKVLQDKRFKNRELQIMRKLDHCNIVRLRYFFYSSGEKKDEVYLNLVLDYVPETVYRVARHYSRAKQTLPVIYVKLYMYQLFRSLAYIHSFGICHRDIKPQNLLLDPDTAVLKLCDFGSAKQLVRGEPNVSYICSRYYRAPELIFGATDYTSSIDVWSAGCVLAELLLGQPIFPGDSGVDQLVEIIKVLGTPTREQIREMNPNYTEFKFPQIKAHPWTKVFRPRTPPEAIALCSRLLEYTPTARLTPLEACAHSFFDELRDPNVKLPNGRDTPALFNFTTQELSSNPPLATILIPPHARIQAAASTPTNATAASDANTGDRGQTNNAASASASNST
# TEST_DESCRIPTION: pThr231 tau phosphorylation plate-based assay in HEK-huTau cells transfected with GSK3β
# MEASUREMENT_CONDITIONS: HEK-huTau cells transfected with human GSK3β; 10-point dose response, 2 hours; read-out: GSK3β IC50 (inhibition of pThr231)
pIC50: −log10 of the molar value.
EXPERIMENTAL_ENDPOINT: pIC50

COMPOUND: CCC1(c2cccc(-c3cn(C)nc3C)c2)C2=C(Nc3n[nH]cc31)C(F)C(C)(C)CC2=O (single isomer, unassigned) [Compound 947651]
pIC50: 5.85
//
COMPOUND: CCC1(c2cccc(C(F)(F)F)c2)C2=C(Nc3n[nH]cc31)C(F)C(C)(C)CC2=O (single isomer, unassigned) [Compound 837646]
pIC50: 6.00
//
COMPOUND: CCC1(c2cccc(-c3c(F)cncc3OC)c2)C2=C(Nc3n[nH]cc31)C(F)C(C)(C)CC2=O (stereo not drawn) [Compound 948546]
pIC50: 6.00

----------
# TARGET_SYSTEM: GSK3b (GST-full length GSK3b) (Homo sapiens (Human))
# TEST_DESCRIPTION: GSK3b TR-FRET kinase assay
# Format: biochemical
# MEASUREMENT_CONDITIONS: 1 nM GSK3b, 2 μM ATP, 30 minute preincubation, Table 16; read-out: GSK3-B TR-FRET BIOCHEMICAL (TR-FRET)
EXPERIMENTAL_ENDPOINT: IC50

Illustrative cases are given below, each with its answer.
COMPOUND: CCn1nc(C)cc1S(=O)(=O)N1CCC2(CC1)C1=C(CC(C)(C)CC1=O)Nc1n[nH]cc12 [Compound 947609]
TARGET_SYSTEM: GSK3b (GST-full length GSK3b) (Homo sapiens (Human))
MEASURED_VALUE: 100 to 1000 nM

COMPOUND: C[C@@H]1C[C@@]2(CCN1S(=O)(=O)c1ccn(C)n1)C1=C(CC(C)(C)CC1=O)Nc1n[nH]cc12 [Compound 917161]
TARGET_SYSTEM: GSK3b (GST-full length GSK3b) (Homo sapiens (Human))
MEASURED_VALUE: ≤ 100 nM

COMPOUND: CCC1(c2cccc(-c3ccnc4c3CCCC4)c2)C2=C(CC(C)(C)CC2=O)Nc2n[nH]cc21 (stereo not shown) [Compound 944033]
TARGET_SYSTEM: GSK3b (GST-full length GSK3b) (Homo sapiens (Human))
MEASURED_VALUE: ≤ 100 nM

Let's switch to this compound now.
Summary for this compound, CC1(C)CC(=O)C2=C(Nc3n[nH]cc3C23CCCCC3)[C@@H]1F [Compound 951705] : IC50 is ≤ 100 nM

----------
# TARGET_SYSTEM: GSK3b (GST-full length GSK3b) (Homo sapiens (Human))
# TEST_DESCRIPTION: GSK3b TR-FRET kinase assay
# Format: biochemical
# MEASUREMENT_CONDITIONS: GSK3-B (TR-FRET 1 mM ATP); GMean; IC50, 1 mM ATP; geometric mean
# Method: TR-FRET Assay: The assay was performed in a white, 384 well, low volume, flat bottom plate (Grenier). After a 30 minute preincubation in assay buffer with the indicated concentration of compound, the kinase activity was initiated by the addition of the substrates. […] After 60 min at room temperature the plate was read on Envision plate reader using Ex: 340 nm, Em: 615 nm and […]. The normalized 665/615 Signal ratio versus log compound concentration was analyzed by XLFIT to yield IC50 values.
pIC50: −log10 of the molar value.
Reported pIC50 values for the following compounds.

COMPOUND: COc1ccccc1S(=O)(=O)N1CCC2(CC1)C1=C(CC(C)(C)CC1=O)Nc1n[nH]cc12 [Compound 893310]
pIC50: 6.00 to 7.00
//
COMPOUND: CC1(C)CC(=O)C2=C(C1)Nc1n[nH]cc1C21CCN(S(=O)(=O)c2cccc3c2OCCO3)CC1 [Compound 947464]
pIC50: 6.00 to 7.00
//
COMPOUND: Cc1cc(S(=O)(=O)N2CCC3(CC2)C2=C(CC(C)(C)CC2=O)Nc2n[nH]cc23)cc(C)n1 [Compound 947616]
pIC50: 5.30 to 6.00

// next item, pIC50 requested
Case CCC1(c2cccc(C(F)(F)F)c2)C2=C(CC(C)(C)NC2=O)Nc2n[nH]cc21 (stereo not shown) [Compound 913006] , GSK3b (GST-full length GSK3b) (Homo sapiens (Human)), pIC50 recorded as < 5.30

----------
# TARGET_SYSTEM: GSK3α (GST-full length GSK3α) (Homo sapiens (Human))
# TEST_DESCRIPTION: GSK3α TR-FRET kinase assay
# Type: biochemical
# MEASUREMENT_CONDITIONS: 1 nM GSK3α, 4 μM ATP, 30 minute preincubation; read-out: GSK3-A TR-FRET BIOCHEMICAL (TR-FRET); IC50
# Method: TR-FRET Assay: The assay was performed in a white, 384 well, low volume, flat bottom plate (Grenier). After a 30 minute preincubation in assay buffer with the indicated concentration of compound, the kinase activity was initiated by the addition of the substrates. […] After 60 min at room temperature the plate was read on Envision plate reader using Ex: 340 nm, Em: 615 nm and […]. The normalized 665/615 Signal ratio versus log compound concentration was analyzed by XLFIT to yield IC50 values.
pIC50: −log10 of the molar value.
EXPERIMENTAL_ENDPOINT: pIC50

COMPOUND: Cc1cccc(C(=O)N2CC3(C2)CC2(CO3)C3=C(CC(C)(C)CC3=O)Nc3n[nH]cc32)c1C (stereo not drawn)
pIC50: ≥ 7.00

Summary for this compound, CC1(C)CC(=O)C2=C(C1)Nc1n[nH]cc1C21COC2(CN(C(=O)C(C)(C)C)C2)C1 (stereo not drawn) : pIC50 is ≥ 7.00

For reference, reported pIC50 for CC1(C)CC(=O)C2=C(C1)Nc1n[nH]cc1C21COC2(CN(C(=O)c3ccccc3F)C2)C1 (stereo not drawn) stands at ≥ 7.00

Looking up CC1CC(C(=O)N2CC3(C2)CC2(CO3)C3=C(CC(C)(C)CC3=O)Nc3n[nH]cc32)C1 (stereo not drawn) [Compound 947266] , I found its pIC50 recorded as ≥ 7.00

Notebook: `CC[C@]1(c2cccc(-c3cnn(C)c3)c2)C2=C(CC(C)(C)NC2=O)Nc2n[nH]c(C)c21` , pIC50 read as < 5.30

Recorded pIC50 (compound Cc1ccc(CC(=O)N2CC3(C2)CC2(CO3)C3=C(CC(C)(C)CC3=O)Nc3n[nH]cc32)cc1 (stereo not drawn) ): ≥ 7.00

----------
# TARGET_SYSTEM: GSK3α (GST-full length GSK3α) (Homo sapiens (Human))
# TEST_DESCRIPTION: GSK3α TR-FRET kinase assay
# Assay type: biochemical
# MEASUREMENT_CONDITIONS: 1 nM GSK3α, 4 μM ATP, 30 minute preincubation, Table 16; read-out: GSK3-A TR-FRET BIOCHEMICAL (TR-FRET)
EXPERIMENTAL_ENDPOINT: IC50

Completed entries (count: 3):
COMPOUND: CC1(C)CC(=O)C2=C(C1)Nc1n[nH]cc1C21CN(S(=O)(=O)c2ccccc2)C1
TARGET_SYSTEM: GSK3α (GST-full length GSK3α) (Homo sapiens (Human))
IC50: ≤ 100 nM

COMPOUND: CCC1(c2cccc(Oc3ncccn3)c2)C2=C(CC(C)(C)CC2=O)Nc2n[nH]cc21 (stereo not shown) [Compound 947400]
TARGET_SYSTEM: GSK3α (GST-full length GSK3α) (Homo sapiens (Human))
IC50: ≤ 100 nM

COMPOUND: CC(=O)N1CCC2(CC1)C1=C(CC(C)(C)CC1=O)Nc1n[nH]cc12
TARGET_SYSTEM: GSK3α (GST-full length GSK3α) (Homo sapiens (Human))
IC50: 100 to 1000 nM

Then this compound:
The compound identified as `COc1ccc(C)c(S(=O)(=O)N2CCC3(CC2)C2=C(CC(C)(C)CC2=O)Nc2n[nH]cc23)c1` registered its IC50 at ≤ 100 nM

The reported numbers originate from patent US20250313563A1.
